# key: entry, value: fraction fluorescent probe displaced, Screen
SUBJECT_OF_TEST: MDM2 (Homo sapiens, UniProt Q00987)
Sequence (Q00987 whole entry): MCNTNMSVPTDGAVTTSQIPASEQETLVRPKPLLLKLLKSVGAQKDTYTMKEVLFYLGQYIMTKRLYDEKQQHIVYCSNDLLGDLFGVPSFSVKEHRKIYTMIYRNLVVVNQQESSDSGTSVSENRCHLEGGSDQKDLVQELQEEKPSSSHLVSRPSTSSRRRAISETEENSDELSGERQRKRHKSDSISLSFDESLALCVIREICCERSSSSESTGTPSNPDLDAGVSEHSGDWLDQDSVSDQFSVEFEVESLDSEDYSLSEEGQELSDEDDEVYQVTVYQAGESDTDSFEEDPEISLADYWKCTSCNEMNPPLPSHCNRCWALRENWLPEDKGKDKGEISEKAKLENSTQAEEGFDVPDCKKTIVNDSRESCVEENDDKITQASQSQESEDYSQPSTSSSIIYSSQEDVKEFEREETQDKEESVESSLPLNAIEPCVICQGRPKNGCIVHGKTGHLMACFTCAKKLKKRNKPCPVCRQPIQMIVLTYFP
PROCEDURE_TEXT: MDM2 binding screen: displacement of fluorescent p53 peptide probe FP53 (fluorescence polarization)
EXPERIMENTAL_PARAMETERS: Acid 91; initial screen; crude macrocycle reactions
Numbered stars: 1 amine (or outer) side, 2 acyl side, 3 side chain; on linkers, the order of the positions; unused ones are H or OH. Bridge positions count the residues as written; N and C are the ends. Square brackets hold non-standard residues; d marks the D form. Peptide text beside a SMILES is read from it. * marks the point of attachment. Cysteamide = C(CS[*:3])N[*:1]; X1 = O=C(/C=C/c1ccccc1)*; Api = NC1(C(=O)O)CCNCC1; Mpa = O=C(O)CCS
Returns: the value as a bare number; no unit string appended.

{"MOLECULE": "O=C1CCSSCCNC(=O)C2CN(C(=O)C=Cc3ccccc3)CCN2C(=O)c2cccc(c2)CNC(=O)C(Cc2ccccc2)N1 (centres unmarked) [X F B5 D7 Acid 91]", "MEASURED": -0.10}

Which fraction fluorescent probe displaced, Screen is listed for O=C1CCSSCCNC(=O)[C@H](Cc2ccccc2)NC(=O)[C@@H]2CCCN2C(=O)C2(CCN(C(=O)/C=C/c3ccccc3)CC2)N1 [X D6 B1 F Acid 91] ([Mpa][Api](X1)PF-Cysteamide; disulfide 1-C) ?
-0.08

Entry O=C1CCSSCCNC(=O)C(Cc2c[nH]c3ccccc23)NC(=O)C2CCCN(C2)C(=O)C2(CCN(C(=O)C=Cc3ccccc3)CC2)N1 (centres unmarked) [X D6 B4 W Acid 91] has what fraction fluorescent probe displaced, Screen?
0.11

I'd like to know its fraction fluorescent probe displaced, Screen. The molecule in question is O=C(C=Cc1ccccc1)NC1CC2C(=O)N3CCCC(C3)C(=O)NCCSSCCC(=O)NC(Cc3c[nH]c4ccccc34)C(=O)N2C1 (centres unmarked) [X W D5 B4 Acid 91]
0.16

Give the measured fraction fluorescent probe displaced, Screen of O=C1CCSSCCNC(=O)C2(CCN(C(=O)/C=C/c3ccccc3)CC2)NC(=O)[C@@H]2CCCN2C(=O)[C@H](Cc2ccccc2)N1 [X F B1 D6 Acid 91] ([Mpa]FP[Api](X1)-Cysteamide; disulfide 1-C) .
-0.05

###

SUBJECT_OF_TEST: UniProtKB Q00987
PROCEDURE_TEXT: MDM2 binding screen of Libraries 3 and 4: displacement of fluorescent probe F-M8 at 750 nM macrocycle
EXPERIMENTAL_PARAMETERS: Panel b, Library 3: 63 scaffolds combinatorially acylated with 15 carboxylic acids at 30 picomole scale; displacement of fluorescent peptide probe; macrocycle 750 nM
Please note: YES applies when fraction of fluorescent probe displaced is 0.008 or greater, and NO applies otherwise.

{"COMPOUND": "O=C(/C=C/c1ccc(OCc2ccccc2)cc1)NCCN1CC(=O)N[C@@H](Cc2cccc3ccccc23)C(=O)NCCSSCCC(=O)N2CCO[C@@H](C2)C1=O", "CATEGORY_LABEL": "YES"}
{"COMPOUND": "O=C(/C=C/c1ccc2ccccc2c1)NC[C@H]1NC(=O)[C@H]2CCCN(C2)C(=O)CCSSCCNC(=O)[C@H](Cc2c[nH]c3cc(Cl)ccc23)NC1=O", "CATEGORY_LABEL": "NO"}
{"COMPOUND": "Cn1cc(C[C@@H]2NC(=O)[C@@H](CNC(=O)/C=C/c3ccc(Cl)cc3)NC(=O)[C@H]3CCCN(C3)C(=O)CCSSCCNC2=O)c2ccccc21", "CATEGORY_LABEL": "YES"}
{"COMPOUND": "Cn1cc(C[C@@H]2NC(=O)[C@@H](CNC(=O)CCS(=O)(=O)c3ccccc3)NC(=O)C3(CC3)CNC(=O)CCSSCCNC2=O)c2ccccc21", "CATEGORY_LABEL": "YES"}

Entry O=C1CCSSCCNC(=O)[C@H](Cc2cccc3ccccc23)NC(=O)[C@@H](CNC(=O)C2COc3ccccc3O2)NC(=O)C2(CC2)CN1 (some centres unmarked) : is its fraction of fluorescent probe displaced no less than 0.008?
YES

Please check the record Cn1cc(C[C@@H]2NC(=O)[C@@H](CNC(=O)C3COc4ccccc4O3)NC(=O)[C@H]3CCCN(C3)C(=O)CCSSCCNC2=O)c2ccccc21 (some centres unmarked) and state if its fraction of fluorescent probe displaced is at or above 0.008.
NO

Please check the record "O=C(CCS(=O)(=O)c1ccccc1)NC[C@H]1NC(=O)[C@@H]2CN(CCO2)C(=O)CCSSCCNC(=O)[C@H](Cc2ccc3ccccc3c2)NC1=O" and state if its fraction of fluorescent probe displaced is at or above 0.008.
NO

Determine whether measured fraction of fluorescent probe displaced meets or exceeds 0.008 for "CN1C(=O)[C@@H](CNC(=O)CCS(=O)(=O)c2ccccc2)NC(=O)C2(CC2)CNC(=O)CCSSCCNC(=O)[C@@H]1Cc1c[nH]c2ccccc12"
YES

Is fraction of fluorescent probe displaced at least 0.008? Consider "O=C(/C=C/c1ccc2ccccc2c1)NC[C@@H]1NC(=O)[C@@H]2CN(CCO2)C(=O)CCSSCCNC(=O)[C@H](Cc2cccc3ccccc23)NC1=O"
YES

Identify whether the reported fraction of fluorescent probe displaced of the following compound is 0.008 or greater: "O=C(NC[C@H]1NC(=O)[C@@H]2CN(CCO2)C(=O)CCSSCCNC(=O)[C@H](Cc2ccc3ccccc3c2)NC1=O)c1ccc(Cl)s1"
NO

Hello, I need to know if O=C1CCSSCCNC(=O)[C@@H](Cc2c[nH]c3ccccc23)NC(=O)CN(CCNC(=O)C2COc3ccccc3O2)C(=O)C2(CC2)CN1 (some centres unmarked) has measured fraction of fluorescent probe displaced not below 0.008. Thanks!
YES

I'd appreciate it if you could say whether "O=C(CCS(=O)(=O)c1ccccc1)NCCN1CC(=O)N[C@@H](Cc2c[nH]c3cc(Cl)ccc23)C(=O)NCCSSCCC(=O)NCC2(CC2)C1=O" has fraction of fluorescent probe displaced at least equal to 0.008.
NO

hey, is fraction of fluorescent probe displaced for this one >= 0.008? "O=C(/C=C/c1ccncc1)NC[C@H]1NC(=O)[C@H]2CCCN(C2)C(=O)CCSSCCNC(=O)[C@H](Cc2c[nH]c3cc(Cl)ccc23)NC1=O"
YES

Has "O=C(/C=C/c1ccc(OCc2ccccc2)cc1)NC[C@@H]1NC(=O)[C@@H]2CN(CCO2)C(=O)CCSSCCNC(=O)[C@H](Cc2c[nH]c3cc(Cl)ccc23)NC1=O" a recorded fraction of fluorescent probe displaced greater than or equal to 0.008?
YES

Would you say "O=C1CCSSCCNC(=O)[C@H](Cc2cccc3ccccc23)NC(=O)[C@@H](CNC(=O)c2ccc3ccccc3c2)NC(=O)C2(CC2)CN1" shows fraction of fluorescent probe displaced at minimum 0.008?
NO

Decide: is the reported value of fraction of fluorescent probe displaced for "O=C(/C=C/c1ccc(Cl)cc1)NC[C@H]1NC(=O)C2(CC2)CNC(=O)CCSSCCNC(=O)[C@H](Cc2c[nH]c3cc(Cl)ccc23)NC1=O" equal to or greater than 0.008?
NO

Quick check: does "Cn1cc(C[C@@H]2NC(=O)[C@@H](CNC(=O)c3ccc(Cl)s3)NC(=O)[C@@H]3CN(CCO3)C(=O)CCSSCCNC2=O)c2ccccc21" have fraction of fluorescent probe displaced greater than or equal to 0.008?
NO

###

SUBJECT_OF_TEST: UniProtKB Q00987
PROCEDURE_TEXT: IC50 of purified MDM2-binding macrocycles, fluorescence polarization competition with FP53
EXPERIMENTAL_PARAMETERS: HPLC-purified macrocycle; FP displacement of fluorescent reporter peptide; replicate 2; read-out: IC50 Replicate 2
METRIC: IC50 (µM)
Kindly provide the numeric value in µM only, without the unit symbol.

Example entries and their recorded answers appear below.
{"COMPOUND": "O=C(/C=C/c1ccccc1)NC[C@@H]1NC(=O)[C@H]2CCCN(C2)C(=O)CCSSCCNC(=O)[C@H](Cc2c[nH]c3ccccc23)NC1=O [M8]", "IC50 [µM]": 0.84}
{"COMPOUND": "O=C(NC[C@@H]1NC(=O)[C@H]2CCCN(C2)C(=O)CCSSCCNC(=O)[C@H](Cc2c[nH]c3ccccc23)NC1=O)c1ccc(Cl)s1 [M6]", "IC50 [µM]": 1.9}

We now examine a further compound.
What does the data say about its IC50? Entry: O=C(NC[C@@H]1NC(=O)[C@H]2CCCN(C2)C(=O)CCSSCCNC(=O)[C@H](Cc2c[nH]c3ccccc23)NC1=O)c1ccc(Cl)cc1 [M7]
2

###

SUBJECT_OF_TEST: MDM2 (Homo sapiens, UniProt Q00987)
PROCEDURE_TEXT: MDM2 binding screen: displacement of fluorescent p53 peptide probe FP53 (fluorescence polarization)
EXPERIMENTAL_PARAMETERS: Acid 25; replicate; crude macrocycle reactions
Procedure: We screened Library 2 in 384-microwell plates by dispensing the target protein MDM2 and reporter peptide into the wells containing the macrocycle reactions. The products were screened for displacement of a p53-based fluorescent peptide from human MDM2. […] For each macrocycle, the MDM2 binding was measured once. One fluorescence anisotropy reading was taken with a Tecan Infinite F200 Pro fluorescence plate reader (excitation at 485 nm, emission at 535 nm) at 25 °C. […]
Numbered stars: 1 amine (or outer) side, 2 acyl side, 3 side chain; on linkers, the order of the positions; unused ones are H or OH. Bridge positions count the residues as written; N and C are the ends. Square brackets hold non-standard residues; d marks the D form. Peptide text beside a SMILES is read from it. * marks the point of attachment. Benzoyl(4-Cl) = O=C(c1ccc(Cl)cc1)*; Cysteamide = C(CS[*:3])N[*:1]; Api = NC1(C(=O)O)CCNCC1; Mpa = O=C(O)CCS
We begin with a simple list: items and their reported fraction fluorescent probe displaced, Replicate.

The following compounds have reported results that may help.
{"COMPOUND": "O=C1CCSSCCNC(=O)[C@@H]2CCCN2C(=O)[C@H](Cc2ccccc2)NC(=O)C2(CCN(C(=O)c3ccc(Cl)cc3)CC2)N1 [X D6 F B1 Acid 25] ([Mpa][Api](Benzoyl(4-Cl))FP-Cysteamide; disulfide 1-C)", "MEASURED": 0.22}
{"COMPOUND": "O=C1CCSSCCNC(=O)[C@H](CNC(=O)c2ccc(Cl)cc2)NC(=O)[C@H](Cc2c[nH]c3ccccc23)NC(=O)CCN1", "MEASURED": 0.22}
{"COMPOUND": "O=C1CCNC(=O)C(Cc2ccccc2)NC(=O)CCSSCCNC(=O)C(CNC(=O)c2ccc(Cl)cc2)N1 (stereo not drawn)", "MEASURED": 0.17}
{"COMPOUND": "O=C1NC(Cc2ccccc2)C(=O)N2CCN(C(=O)c3ccc(Cl)cc3)CC2C(=O)NCCSSCCC(=O)N2CCCC1C2 (stereo not drawn)", "MEASURED": 0.10}
{"COMPOUND": "O=C(NC1CC2C(=O)NC(Cc3ccccc3)C(=O)N3CCCC(C3)C(=O)NCCSSCCC(=O)N2C1)c1ccc(Cl)cc1 (stereo not drawn)", "MEASURED": 0.0211}

Form field - read-out: fraction fluorescent probe displaced, Replicate; system: MDM2 (Homo sapiens, UniProt Q00987); submitted item: O=C1CCSSCCNC(=O)C(Cc2c[nH]c3ccccc23)NC(=O)C2CN(C(=O)c3ccc(Cl)cc3)CCN2C(=O)CCN1 (mixture of isomers)
0.07
